The values you see were collected from patent US20160279215A1.

Measured peptide exchange yield, listed per entry.
Target: T1, HLA-A*02:01 (human)
T1 construct: MHC monomers captured on streptavidin plates; the UV-sensitive peptide is cleaved and exchanged with the test peptide; also called peptide-receptive MHC molecules; MHC class I
Experiment: UV ligand-exchange ELISA (anti-b2m); +++ = exchange yield >=50

Give reported peptide exchange yield value for SIIEYLPTL
50 to 75%

Give reported peptide exchange yield value for QLGPVPVTI
50 to 75%

Give reported peptide exchange yield value for FLTEMVHFI
50 to 75%

Give reported peptide exchange yield value for KLFEKSTGL
50 to 75%

Give reported peptide exchange yield value for YLEDGFAYV
50 to 75%
